A collection of compounds and their measured %Inh
test system: SIK; conditions: concentration: 1 μM, replicates: in singlicate; n = 1;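 further: KINOMEscan kinase panel screen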
Write the numeric value and append its unit.

                                   compound  endpoint_result
0  Cc1cccc(-c2nc(C)cc(Nc3ccncc3)n2)n1 [GSK257997]               0%
1  COc1ccc(Nc2nccc(NCCNC(=O)Nc3ccccc3F)n2)cc1 [GSK1379901]               0%
2  O=S(=O)(c1ccc(-c2ccnc3[nH]ccc23)cc1)N1CCCC1 [GSK846226]               0%
3  COc1ccccc1-c1ccc2c(NC(=O)C3CC3)n[nH]c2n1 [SB-711239]               3%
4  Cc1cccc(-c2nc(Nc3ccc4[nH]ncc4c3)c3ccccc3n2)n1 [GW857175]               0%

Notebook: O=C(Nc1ccc2c(c1)OCO2)NC1CCN(c2ccnc(Nc3ccc(F)cc3)n2)C1 (stereo not drawn) [GSK1379724] , %Inh read as 0%

Notebook: Cc1cccc(-c2cc(Nc3ccncc3)c3ccccc3n2)n1 [GSK223675] , %Inh read as 0%

Notebook: CS(=O)(=O)c1ccc(-c2c(-c3ncn[nH]3)sc(N3CCOCC3)c2C#N)cc1 , %Inh read as 39%

Notebook: CCn1c(-c2ccccn2)nc2cnccc21 [SB-736398] , %Inh read as 0%

====

test system: EPHA4; details: concentration: 1 μM, replicates: in singlicate; n = 1
READOUT_TYPE: %Inh (%)
Express the result in % but write the number alone.

Example cases with answers are listed next.
>>> print(df.to_string())
                              line_notation  endpoint_result
0     Cc1cccc(-c2nc(Nc3ccncc3)c3ccccc3n2)n1               18
1  CS(=O)(=O)c1ccc(-c2c(-c3ncn[nH]3)sc(N3CCOCC3)c2C#N)cc1               27
2  CN1C(=O)C(Nc2ccc(Cl)c(C(=O)O)c2)=C(c2ccc(Cl)cc2)C1=O                1
3  O=S(=O)(c1ccc(-c2ccnc3[nH]ccc23)cc1)N1CCCC1                0
4  O=C(O)COc1ncnc2cc(-c3ccc4[nH]ncc4c3)sc12                0

Notebook: Nc1ncnc2[nH]c(-c3ccccc3)nc12 , %Inh read as 23

Notebook: COc1cc2nccc(Nc3ccc(NC(=O)c4ccc(C)cc4)c(O)c3)c2cc1OC.Cl , %Inh read as 0

Notebook: Cc1ccc(NC(=O)Nc2cccc(Cl)c2)cc1-c1ccc(C(=O)Nc2ccncc2)cc1 , %Inh read as 18

Notebook: COc1ccccc1-c1ccc2c(NC(=O)C3CC3)n[nH]c2n1 , %Inh read as 13

====

test system: PIK4CB; construct: gene PI4KB; details: concentration: 1 μM, replicates: in singlicate; n = 1
READOUT_TYPE: %Inh (%)
Express the result in % but write the number alone.

                                   compound  tested_system  endpoint_result
0  COC(=O)c1c(-c2ccccc2)c2cc(C(=O)O)ccc2c(=O)n1Cc1ccccc1         PIK4CB                0
1  COc1ccc2nc(-c3cccc(C)n3)nc(Nc3ccncc3)c2c1 [GSK204919]         PIK4CB                5
2  Cl.c1ccc(-c2n[nH]cc2-c2ccnc(-c3ccc(CN4CCOCC4)cc3)c2)nc1 [GW776245]         PIK4CB                0
3  Cc1csc(-c2nc(Nc3ccncc3)c3ccccc3n2)n1 [GW869640]         PIK4CB               57
4  COc1cc2nccc(Nc3ccc(NC(=O)c4ccc(C)cc4)c(O)c3)c2cc1OC.Cl [GW440132]         PIK4CB                0

Could you now look at the following compound, please?
Notebook: CS(=O)(=O)c1ccc(-c2nc3n(c2-c2ccncc2)CCC3)cc1 [SKF-105942] , %Inh read as 100
